Target: T1, His-TRAF6_(310-522) (human, UniProt Q9Y4K3 310-522)
T1 construct: also called His-T6; recombinant TRAF6 wild-type; source: E. coli BL21 Codon Plus RIPL, purified (Ni-NTA)
T1 sequence: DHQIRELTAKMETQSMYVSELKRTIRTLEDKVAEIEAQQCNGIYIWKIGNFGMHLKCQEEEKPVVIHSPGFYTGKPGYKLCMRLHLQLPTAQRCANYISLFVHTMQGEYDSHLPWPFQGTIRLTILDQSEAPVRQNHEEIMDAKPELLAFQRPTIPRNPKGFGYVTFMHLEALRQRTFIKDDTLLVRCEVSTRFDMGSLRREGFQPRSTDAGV
Experiment: AlphaScreen or HTRF; AlphaScreen PPI assay: His-TRAF and GST-LMP1, GST-CD40 or GST-RANK in PBS with 0.5% BSA and 0.1% Tween-20, 1 h at RT; standard 300 nM His-TRAF and 100 nM GST protein if not indicated otherwise; for KD His-TRAF6 at different concentrations, fit one site-specific binding with hill slope
Conditions: both partners purified

[
  {
    "binder": "GST-LMP1_(181-386) G378A (domain or fragment, source: E. coli DH5α or BL21 Codon Plus RIPL, purified (glutathione Sepharose 4B)) LIWMYYHGQRHSDEHHHDDSLPHPQQATDDSGHESDSNSNEGRHHLLVSGAGDGPPLCSQNLGAPGGGPDNGPQDPDNTDDNGPQDPDNTDDNGPHDPLPQDPDNTDDNGPQDPDNTDDNGPHDPLPHSPSDSAGNDGGPPQLTEEVENKGGDQGPPLMTDGGGGHSHDSGHGGGDPHLPTLLLGSSGSGGDDDDPHAPVQLSYYD",
    "binding result": "binds"
  },
  {
    "binder": "GST-LMP1_(181-386) L382A (domain or fragment, source: E. coli DH5α or BL21 Codon Plus RIPL, purified (glutathione Sepharose 4B)) LIWMYYHGQRHSDEHHHDDSLPHPQQATDDSGHESDSNSNEGRHHLLVSGAGDGPPLCSQNLGAPGGGPDNGPQDPDNTDDNGPQDPDNTDDNGPHDPLPQDPDNTDDNGPQDPDNTDDNGPHDPLPHSPSDSAGNDGGPPQLTEEVENKGGDQGPPLMTDGGGGHSHDSGHGGGDPHLPTLLLGSSGSGGDDDDPHGPVQASYYD",
    "binding result": "binds"
  },
  {
    "binder": "GST-LMP1_(181-386) Y384F (domain or fragment, also called LMP1 Y384F; source: E. coli DH5α or BL21 Codon Plus RIPL, purified (glutathione Sepharose 4B)) LIWMYYHGQRHSDEHHHDDSLPHPQQATDDSGHESDSNSNEGRHHLLVSGAGDGPPLCSQNLGAPGGGPDNGPQDPDNTDDNGPQDPDNTDDNGPHDPLPQDPDNTDDNGPQDPDNTDDNGPHDPLPHSPSDSAGNDGGPPQLTEEVENKGGDQGPPLMTDGGGGHSHDSGHGGGDPHLPTLLLGSSGSGGDDDDPHGPVQLSFYD",
    "binding result": "binds"
  }
]
